biological target: GSK-3α/β; experiment: GSK-3α/β kinase assay (GS-1 substrate, 15 μM ATP); conditions: 30° C., 30 min, read-out: GSK3 IC50
Readings of IC50 for the listed compounds

COMPOUND: CCN(CC)CCO/N=C1/C(=C2/C(=O)Nc3cc(Br)ccc32)Nc2ccccc21 [Cpd 17]
IC50 (nM): 27
//
COMPOUND: O=C1Nc2cc(Br)ccc2/C1=C1/Nc2ccccc2/C1=N\OCCN1CCN(CCOCCO)CC1 [Cpd 15]
IC50 (nM): 14
//
COMPOUND: O=C1Nc2cc(Br)ccc2/C1=C1/Nc2ccccc2/C1=N\OCCN1CCCC1 [Cpd 7]
IC50 (nM): 26
//
COMPOUND: CN1CCN(CCO/N=C2/C(=C3/C(=O)Nc4cc(Br)ccc43)Nc3ccccc32)CC1 [Cpd 23]
IC50 (nM): 5
//
COMPOUND: O=C1Nc2cc(Br)ccc2/C1=C1/Nc2ccccc2/C1=N\OCCN1CCN(CCOCCO)CC1 [Cpd 26]
IC50 (nM): 33
//
COMPOUND: CN(CCO/N=C1/C(=C2/C(=O)Nc3cc(Br)ccc32)Nc2ccccc21)CC(O)CO (stereo not shown)
IC50 (nM): 67
//
COMPOUND: O=C1Nc2cc(Br)ccc2/C1=C1/Nc2ccccc2/C1=N\OCC(O)CO (stereo not shown)
IC50 (nM): 34
//
COMPOUND: O=C1Nc2cc(Br)ccc2/C1=C1/Nc2ccccc2/C1=N\OCCO
IC50 (nM): 1700
//
COMPOUND: CN1CCN(CCO/N=C2/C(=C3/C(=O)Nc4cc(Br)ccc43)Nc3ccccc32)CC1 [Cpd 12]
IC50 (nM): 7
//
COMPOUND: CCN(CC)C(=O)O/N=C1/C(=C2/C(=O)Nc3cc(Br)ccc32)Nc2ccccc21
IC50 (nM): 30
//
COMPOUND: CN(CCON=C1C(=C2C(=O)Nc3cc(Br)ccc32)Nc2ccccc21)CC(O)CO (stereo not shown)
IC50 (nM): 23
//
COMPOUND: O=C1Nc2cc(Br)ccc2/C1=C1/Nc2ccccc2/C1=N\OCCBr
IC50 (nM): 140
//
COMPOUND: CCN(CC)CCO/N=C1/C(=C2/C(=O)Nc3cc(Br)ccc32)Nc2ccccc21 [Cpd 6]
IC50 (nM): 35
//
COMPOUND: O=C1Nc2cc(Br)ccc2/C1=C1/Nc2ccccc2/C1=N\OCCN1CCCC1 [Cpd 18]
IC50 (nM): 54
//
COMPOUND: COCCN1CCN(CCO/N=C2/C(=C3/C(=O)Nc4cc(Br)ccc43)Nc3ccccc32)CC1 [Cpd 25]
IC50 (nM): 20
//
COMPOUND: COCCN1CCN(CCO/N=C2/C(=C3/C(=O)Nc4cc(Br)ccc43)Nc3ccccc32)CC1 [Cpd 14]
IC50 (nM): 11
